Values from a melting point compilation (Tetko et al.)

As shown below, each of these compounds has a reported melting point value.

Here's what some known entries look like.
compound	melting point
CCCC1CCC(=O)NC1=O (stereo not drawn)	76 to 78 °C
CCOC(=O)c1sc2nc(N3CCOCC3)[nH]c(=O)c2c1C	296 to 298 °C

Query :: GET /values?readout=melting point&item= O=c1oc2ccccc2n1CCO
Result :: 104 to 106 °C

Query :: What about c1cnc2c(c1)NCCO2 ?
Result :: 111 to 113 °C

Query :: What about CCOC(=O)c1ncn(-c2ccc(C)cc2)c1N ?
Result :: 246 to 248 °C

Query :: What about COc1ccc(F)cc1CCl ?
Result :: 52 to 53 °C

Query :: What about COc1ccccc1NC1=NCC(C)S1 (stereo not drawn) ?
Result :: 92 to 97 °C

---

As shown below, each of these molecules has a reported melting point value.

Here's what some known entries look like.
compound	melting point
O=C(O)c1cc(S(=O)(=O)F)cs1	191 to 193 °C
CS(=O)(=O)Nc1ccc(N)cc1	114 to 116 °C
Cc1ccc(C(=O)N2CCOCC2)cc1N	153 to 155 °C
COc1cc(NC(=O)C2CCCC2)c(C(=O)O)cc1OC	193 to 195 °C
O=[N+]([O-])c1ccc(S(=O)(=O)Cl)c(F)c1	72 to 74 °C

Query :: GET /values?readout=melting point&item= COc1cc(C=O)ccc1Oc1ccc(S(=O)(=O)N2CCCCC2)cc1[N+](=O)[O-]
Result :: 173 to 175 °C

Query :: What about O=C(O)CCNC(=O)c1ccc2ccccc2c1 ?
Result :: 179 to 181 °C

Query :: What about CCn1c(C)cc(C=O)c1C ?
Result :: 87 to 89 °C

Query :: What about NC(=S)C1(NC(=O)c2ccccc2)CCCCC1 ?
Result :: 189 to 191 °C

Query :: What about CCOc1ccc(S(N)(=O)=O)cc1Br ?
Result :: 139 to 141 °C

---

recorded-endpoint: melting point

Here's what some known entries look like.
compound	result
Nc1nnc(-c2ccc3c(c2)OCO3)o1	271 to 273 °C
Nc1c([N+](=O)[O-])c(=O)oc2ccccc12	259 to 261 °C

Query :: GET /values?readout=melting point&item= CCCCc1ccnc(N)n1
Result :: 99 to 101 °C

Query :: What about O=c1c2ccccc2ncn1CCCl ?
Result :: 124 to 126 °C

Query :: What about Cc1cccc(OCC(=O)NN)c1 ?
Result :: 109 to 111 °C

Query :: What about NS(=O)(=O)c1cc(Cl)c(Cl)c(C(=O)O)c1 ?
Result :: 237 to 239 °C

Query :: What about Nc1nc2ccccc2n1-c1ccccc1F ?
Result :: 121 to 123 °C

---

As shown below, each of these molecules has a reported melting point value.

Here's what some known entries look like.
molecule	melting point
N#Cc1ccccc1-c1ccc(CN2CCOCC2)cc1	71 to 73 °C
COc1c(OC(F)F)ccc(C=O)c1[N+](=O)[O-]	61 to 63 °C
Cc1noc2ncc(S(=O)(=O)Cl)cc12	110 to 112 °C
O=C1NC(=O)C2(CCc3ccccc32)N1 (stereo not given)	229 to 231 °C

Query :: GET /values?readout=melting point&item= CN(CCC#N)c1ccc(C=O)cc1
Result :: 70 to 74 °C

Query :: What about Nc1nc(Cl)ccc1Cl ?
Result :: 94 to 96 °C

Query :: What about Cc1cc(-c2nc(C3CC3)no2)ccc1N ?
Result :: 87 to 89 °C

Query :: What about CC(NC(=O)c1cc(-c2ccccc2)on1)C(=O)O (stereo not given) ?
Result :: 164 to 166 °C

Query :: What about O=C(O)c1cc(S(=O)(=O)NCCCN2CCCC2=O)ccc1Cl ?
Result :: 98 to 100 °C

Query :: What about Cc1nc(C(C)C)sc1C(=O)O ?
Result :: 169 to 171 °C

Query :: What about O=C(NCCO)c1ccn[nH]1 ?
Result :: 169 to 171 °C

Query :: What about CSc1ccc(N)cc1Cl ?
Result :: 74 to 76 °C

Query :: What about CSc1ccsc1C(=O)O ?
Result :: 194 to 196 °C

Query :: What about CC(C)C(N)c1nc(-c2nnc[nH]2)no1 (stereo not given) ?
Result :: 210 to 212 °C

Query :: What about Nc1ccc(NC(=O)N2CCCCCC2)cc1 ?
Result :: 132 to 134 °C

---

As shown below, each of these compounds has a reported melting point value.

compound	melting point
CC(Cl)C(=O)Nc1ncccn1 (stereo not drawn)	148 to 150 °C
COCc1cc(C(=O)O)ccc1F	100 to 102 °C
Cc1ccc(-n2c(C)cc(CC(=O)O)c2C)cc1	50 to 52 °C
NC(c1ccccc1)c1ccncc1 (stereo not drawn)	40 to 42 °C
COC(=O)c1[nH]n(-c2ccc(C(=O)O)cc2)c(=O)c1CCO	233 to 235 °C

Query :: GET /values?readout=melting point&item= O=C1CC(C2CCCCN2)CN1 (stereo not drawn)
Result :: 62 to 64 °C

---

As shown below, each of these molecules has a reported melting point value.

Here's what some known entries look like.
molecule	result
CC(C)n1[nH]c(-c2ccc(F)cc2)cc1=O	156 to 158 °C
Cc1cc(C(=O)c2cccnc2)ccc1F	86 to 88 °C
N#Cc1ccc(NC(=O)CCCl)cc1	152 to 154 °C
CN(C)S(=O)(=O)Nc1ccccc1Br	78 to 80 °C
COc1ccc(/C=C(/C(=O)O)c2cccs2)cc1	205 to 207 °C
Cc1c(CC#N)cccc1[N+](=O)[O-]	79 to 81 °C
c1cc2c(s1)C1(CCNCC1)OCC2	95 to 97 °C
O=C(O)C1CCCN1Cc1ccc(F)cc1 (configuration not stated)	242 to 244 °C

Query :: GET /values?readout=melting point&item= Cc1[nH]c(C2CCCN2)nc1-c1ccccc1 (configuration not stated)
Result :: 164 to 166 °C

Query :: What about Nc1ncc(Cc2ccc(Cl)cc2Cl)s1 ?
Result :: 109 to 111 °C

Query :: What about O=C(O)c1ccc(Cl)c(S(=O)(=O)Nc2ccccc2N2CCOCC2)c1 ?
Result :: 178 to 180 °C

Query :: What about O=C(Nc1ccc(O)cc1)c1cccc([N+](=O)[O-])c1 ?
Result :: 222 to 224 °C

---

recorded-endpoint: melting point

Here's what some known entries look like.
molecule	melting point
COC(=O)c1cc(NS(=O)(=O)c2cccs2)cc(NS(=O)(=O)c2cccs2)c1	251 to 253 °C
Cc1nc(N(C)C)sc1C(=O)O	99 to 101 °C
COc1ccc(C(=O)O)cc1OCc1ccccn1	219 to 221 °C
COc1cc(C)c(S(=O)(=O)Cl)cc1OC	73 to 75 °C
COc1cccc2[nH]cc(CC(=O)O)c12	174 to 176 °C
Cc1nc(CCC(=O)O)oc1-c1ccccc1	162 to 164 °C
COC(=O)c1oc2ccccc2c1C	70 to 72 °C
O=C(O)c1cc(-c2cccc(F)c2)no1	189 to 191 °C

Query :: GET /values?readout=melting point&item= NC(=O)CCC(C(=O)O)N1C(=O)c2ccccc2C1=O (stereo not given)
Result :: 161 to 163 °C

Query :: What about Cc1nc(C)c(CC(=O)O)c(=O)[nH]1 ?
Result :: 229 to 231 °C

---

As shown below, each of these compounds has a reported melting point value.

Here's what some known entries look like.
compound	melting point
Nc1cc(F)cc(C(=O)O)c1F	161 to 163 °C
CCC(C)c1ccc(C(=O)O)cc1 (stereo unspecified)	88 to 90 °C
O=C(O)c1ccnc(Br)c1[N+](=O)[O-]	220 to 222 °C
Nc1ccc(-c2cncnc2)cc1	208 to 210 °C
C#CCOc1ccccc1C#N	77 to 79 °C

Now look at this entry.
Query :: GET /values?readout=melting point&item= CC(C)Oc1ccc(C(=O)O)cc1N
Result :: 115 to 117 °C

---

recorded-endpoint: melting point

Here's what some known entries look like.
compound	result
O=C(Cc1ccccc1)NC1CCNCC1	139 to 141 °C
O=C(O)c1ccnc(OC2CCCCC2)c1	123 to 125 °C
Cc1n[nH]c(C)c1CO	178 to 180 °C

Query :: GET /values?readout=melting point&item= CN(C)c1cccc(Oc2ccc(C(N)=S)cc2)c1
Result :: 182 to 184 °C

Query :: What about N#Cc1cccc(CS(=O)(=O)NN)c1 ?
Result :: 139 to 141 °C

Query :: What about Cc1ccc(CNC(N)=O)cc1 ?
Result :: 184 to 186 °C

Query :: What about Cc1ccc(-n2c(C)cc(C=O)c2C)cc1 ?
Result :: 102 to 104 °C

Query :: What about O=c1[nH]c(-c2ccccc2Br)cs1 ?
Result :: 169 to 171 °C

Query :: What about COC(=O)c1cc2c(F)cc(F)cc2[nH]1 ?
Result :: 198 to 200 °C

Query :: What about O=C(O)COc1ccccc1C(F)(F)F ?
Result :: 151 to 153 °C

Query :: What about CC1(c2ccccc2Br)NC(=O)NC1=O (stereo not given) ?
Result :: 219 to 221 °C
